Provenance of the data: ChEMBL document CHEMBL5528076

# subject.of.test: Serine/threonine-protein kinase 3 (Homo sapiens)
parameter: IC50 (nM)
Give bare numbers, in nM.

Q) # query: IC50 of entry CN1C(=O)c2sccc2N(C)c2nc(Nc3ccc(S(N)(=O)=O)cc3)ncc21
A) 493

* * *

Provide the reported pEC50 of each item.
# subject.of.test: Serine/threonine-protein kinase 3 (Homo sapiens)
# Sequence (Q13188 whole entry): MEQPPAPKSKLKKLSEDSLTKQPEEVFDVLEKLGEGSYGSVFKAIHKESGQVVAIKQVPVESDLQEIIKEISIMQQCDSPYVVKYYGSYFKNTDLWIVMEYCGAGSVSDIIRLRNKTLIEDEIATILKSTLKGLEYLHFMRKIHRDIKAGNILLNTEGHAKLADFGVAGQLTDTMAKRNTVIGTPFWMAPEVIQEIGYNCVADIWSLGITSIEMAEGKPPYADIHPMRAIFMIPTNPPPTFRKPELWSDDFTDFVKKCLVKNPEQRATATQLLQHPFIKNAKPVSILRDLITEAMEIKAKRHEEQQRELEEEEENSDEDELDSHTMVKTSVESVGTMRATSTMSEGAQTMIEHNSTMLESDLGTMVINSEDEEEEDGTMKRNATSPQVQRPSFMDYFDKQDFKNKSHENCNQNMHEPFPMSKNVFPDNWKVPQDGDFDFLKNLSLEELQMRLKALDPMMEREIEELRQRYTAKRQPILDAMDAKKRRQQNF
# assay.comment: Inhibition of MST2 (unknown origin) expressed in HEK293T cells using NanoGlo as substrate incubated for 20 hrs by NanoBRET assay
One number for each entry, as −log10 of the molar value.

{"smiles.repr": "CNc1ncc2cc(-c3ccc(-c4cccc(C)n4)cc3Cl)c(=O)n(CCOC)c2n1", "endpoint.result": 4.55}
{"smiles.repr": "Cc1cccc(-c2ccc(-c3cc4cnc(Nc5ccc(C)c(O)c5)nc4n(CCCCN)c3=O)c(Cl)c2)n1", "endpoint.result": 6.27}
{"smiles.repr": "Cc1cccc(-c2ccc(-c3cc4cnc(Nc5ccc(CCCO)cc5)nc4n(CCCCN)c3=O)c(Cl)c2)n1", "endpoint.result": 6.60}

Q) # query: pEC50 of entry COc1ccc(O)c(Nc2ncc3cc(-c4ccc(-c5cccc(C)n5)cc4Cl)c(=O)n(CCCCN)c3n2)c1
A) 5.51

* * *

# subject.of.test: Serine/threonine-protein kinase 26 (Homo sapiens)
# Sequence (Q9P289 whole entry): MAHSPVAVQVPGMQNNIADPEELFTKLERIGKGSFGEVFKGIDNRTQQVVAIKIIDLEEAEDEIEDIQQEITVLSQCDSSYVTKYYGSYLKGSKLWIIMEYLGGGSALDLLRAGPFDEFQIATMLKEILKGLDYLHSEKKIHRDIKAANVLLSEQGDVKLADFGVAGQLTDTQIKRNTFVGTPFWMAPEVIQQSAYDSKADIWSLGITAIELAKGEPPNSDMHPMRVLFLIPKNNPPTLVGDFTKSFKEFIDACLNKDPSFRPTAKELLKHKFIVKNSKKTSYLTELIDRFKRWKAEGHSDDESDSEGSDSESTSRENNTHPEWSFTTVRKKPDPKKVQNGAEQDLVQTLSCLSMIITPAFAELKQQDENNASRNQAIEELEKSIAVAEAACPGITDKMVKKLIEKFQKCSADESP
# assay.comment: Inhibition of MST4 (unknown origin) expressed in HEK293T cells using NanoGlo as substrate incubated for 20 hrs by NanoBRET assay
Hi! Just check whether EC50 is below 2 µM. Below gives criterion met, equal or above gives criterion not met.

{"smiles.repr": "CNc1ncc2cc(-c3ccc(-c4cccc(C)n4)cc3Cl)c(=O)n(CCC3CCNCC3)c2n1", "assigned.category": "criterion met"}
{"smiles.repr": "CNc1ncc2cc(-c3ccc(-c4cccc(C)n4)cc3Cl)c(=O)n(C[C@H]3CC[C@H](N)CC3)c2n1", "assigned.category": "criterion met"}

Q) I wonder whether CNc1ncc2cc(-c3ccc(-c4cccc(C)n4)cc3Cl)c(=O)n(CCCN)c2n1 has EC50 below 2 µM. Can you tell?
A) criterion not met

Q) I wonder whether Cc1cccc(-c2ccc(-c3cc4cnc(Nc5ccc(C)c(O)c5)nc4n(CCCCN)c3=O)c(Cl)c2)n1 has EC50 below 2 µM. Can you tell?
A) criterion met

Q) I wonder whether CNc1ncc2cc(-c3ccc(-c4cccc(C)n4)cc3Cl)c(=O)n(CCCCOC)c2n1 has EC50 below 2 µM. Can you tell?
A) criterion not met

Q) I wonder whether COc1cc(N2CCOCC2)ccc1Nc1ncc2cc(-c3ccc(-c4cccc(C)n4)cc3Cl)c(=O)n(CCCCN)c2n1 has EC50 below 2 µM. Can you tell?
A) criterion met

Q) I wonder whether Cc1cccc(-c2ccc(-c3cc4cnc(Nc5ccc(CCCO)cc5)nc4n(CCCCN)c3=O)c(Cl)c2)n1 has EC50 below 2 µM. Can you tell?
A) criterion met
